system: cloned human MC4R (Homo sapiens)
Construct: made in house; host or cells: Hi5 insect cells (baculovirus infection); membrane preparation
Sequence (P32245 whole entry): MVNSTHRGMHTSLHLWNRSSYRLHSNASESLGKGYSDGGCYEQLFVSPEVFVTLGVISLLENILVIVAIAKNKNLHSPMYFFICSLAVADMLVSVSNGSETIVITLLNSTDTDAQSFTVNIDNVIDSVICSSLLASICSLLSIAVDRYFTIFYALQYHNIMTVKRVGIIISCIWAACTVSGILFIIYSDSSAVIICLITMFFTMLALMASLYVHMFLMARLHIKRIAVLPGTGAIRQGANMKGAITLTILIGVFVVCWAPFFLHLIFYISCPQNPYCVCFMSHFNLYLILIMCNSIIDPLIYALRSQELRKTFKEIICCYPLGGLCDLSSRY
method: Membrane binding assay: competitive inhibition of [125I]NDP-α-MSH binding
conditionLabel: at 10 μM; [125I]NDP-α-MSH displacement; read-out: Displacement Rate (%) (at 10 μM)
measurementKind: inhibition at 10 µM

Form: item N[C@@H](Cc1ccc(OCc2ccccc2)cc1)C(=O)N1CCN(Cc2cn(Cc3ccccc3)c3ccccc23)CC1 [Example 87] ; test system cloned human MC4R (Homo sapiens); inhibition at 10 µM: 91 to 100%

Form: item N[C@@H](Cc1ccc(OCc2ccccc2)cc1)C(=O)N1CCN(Cc2ccc(C(F)(F)F)cc2C(F)(F)F)CC1 [Example 98] ; test system cloned human MC4R (Homo sapiens); inhibition at 10 µM: 91 to 100%

Form: item N[C@@H](Cc1ccc(OCc2ccccc2)cc1)C(=O)N1CCCN(Cc2ccc(OCc3ccccc3)cc2)CC1 [Example 13] ; test system cloned human MC4R (Homo sapiens); inhibition at 10 µM: 91 to 100%

Form: item N[C@@H](Cc1ccc(OCc2ccccc2)cc1)C(=O)N1CCCN(Cc2ccc3c(c2)Cc2ccccc2-3)CC1 [Example 10] ; test system cloned human MC4R (Homo sapiens); inhibition at 10 µM: 91 to 100%

Form: item N[C@@H](Cc1ccc(OCc2ccccc2)cc1)C(=O)N1CCCN(CC(c2ccccc2)c2ccccc2)CC1 [Example 23] ; test system cloned human MC4R (Homo sapiens); inhibition at 10 µM: 91 to 100%

Form: item COc1cc(CN2CCN(C(=O)[C@@H](N)Cc3ccc(OCc4ccccc4)cc3)CC2)ccc1OCc1ccccc1 [Example 115] ; test system cloned human MC4R (Homo sapiens); inhibition at 10 µM: 71 to 90%

Form: item CC(C)c1ccc(-c2ccc(C[C@H](N)C(=O)N3CCN(Cc4cccc(Cl)c4Cl)CC3)cc2)cc1 [Example 332] ; test system cloned human MC4R (Homo sapiens); inhibition at 10 µM: 35 to 70%

Form: item N[C@@H](Cc1ccc(OCc2ccccc2)cc1)C(=O)N1CCN(Cc2ccc([N+](=O)[O-])cc2)CC1 [Example 149] ; test system cloned human MC4R (Homo sapiens); inhibition at 10 µM: 35 to 70%

Form: item N[C@@H](Cc1ccc(OCc2ccccc2)cc1)C(=O)N1CCN(Cc2ccco2)CC1 [Example 151] ; test system cloned human MC4R (Homo sapiens); inhibition at 10 µM: 35 to 70%

Form: item N[C@@H](Cc1ccc(OCc2ccccc2)cc1)C(=O)N1CCCN(Cc2cccc(C(F)(F)F)c2)CC1 [Example 55] ; test system cloned human MC4R (Homo sapiens); inhibition at 10 µM: 35 to 70%

Form: item CCCOc1ccc(CN2CCN(C(=O)[C@@H](N)Cc3ccc(OCc4ccccc4)cc3)CC2)cc1 [Example 126] ; test system cloned human MC4R (Homo sapiens); inhibition at 10 µM: 71 to 90%

Form: item N[C@@H](Cc1ccc(OCc2ccccc2)cc1)C(=O)N1CCN(Cc2ccc(-c3ccc(Cl)cc3)o2)CC1 [Example 81] ; test system cloned human MC4R (Homo sapiens); inhibition at 10 µM: 91 to 100%

Form: item N[C@@H](Cc1ccc(OCc2ccccc2)cc1)C(=O)N1CCN(Cc2c(F)cccc2Cl)CC1 [Example 140] ; test system cloned human MC4R (Homo sapiens); inhibition at 10 µM: 35 to 70%

Form: item CN(C)c1ccc(-c2ccc(C[C@H](N)C(=O)N3CCN(Cc4cccc(Cl)c4Cl)CC3)cc2)cc1 [Example 323] ; test system cloned human MC4R (Homo sapiens); inhibition at 10 µM: 71 to 90%

Form: item N[C@@H](Cc1ccc(OCc2ccccc2)cc1)C(=O)N1CCCN(Cc2ccc(Cl)c(Cl)c2)CC1 [Example 17] ; test system cloned human MC4R (Homo sapiens); inhibition at 10 µM: 91 to 100%
